Field: pEC50. Provide a value for each of the compounds that follow.
- STUDY SYSTEM: Wnt-responsive promoter (TCF/LEF)
- ASSAY PROTOCOL: Wnt-dependent luciferase reporter assay
pEC50: −log10 of the molar value. Where a SMILES comes first, the peptide text is derived from it.

// each compound listed below needs its pEC50
1. CC[C@H](C)[C@H](NC(=O)[C@H](CC(C)C)NC(=O)[C@H](Cc1ccccc1)NC(=O)[C@H](Cc1c[nH]c2ccccc12)NC(=O)[C@H](CCSC)NC(=O)[C@H](CCCNC(=N)N)NC(=O)[C@H](CC(N)=O)NC(=O)[C@@H](N)CCSC)C(=O)N[C@@H](CO)C(=O)N[C@@H](Cc1ccccc1)C(=O)N[C@@H](Cc1c[nH]c2ccccc12)C(=O)NCC(=O)O [compound 61] (H-MNRMWFLISFWG-OH)
2. CC[C@H](C)[C@H](NC(=O)[C@H](CC(C)C)NC(=O)[C@H](CC1CCCCC1)NC(=O)[C@H](Cc1c[nH]c2ccccc12)NC(=O)[C@H](CCSC)NC(C)=O)C(=O)N[C@@H](CO)C(=O)N[C@@H](Cc1ccccc1)C(=O)N[C@@H](Cc1c[nH]c2ccccc12)C(=O)NCC(=O)O [compound 216] (HELM PEPTIDE1{[ac].M.W.[Cha].L.I.S.F.W.G}$$$$V2.0)

1. 4.82 to 5.12
2. > 5.12

Query pEC50 on Wnt-responsive promoter (TCF/LEF) for CC[C@H](C)[C@@H]1NC(=O)[C@H](CC(C)C)NC(=O)[C@H](Cc2ccccc2)NC(=O)[C@H](Cc2c[nH]c3ccccc23)NC(=O)[C@@H](N)CCCCNC(=O)CNC(=O)C[C@@H](C(=O)O)NC(=O)[C@H](Cc2c[nH]c3ccccc23)NC(=O)[C@H](C)NC(=O)[C@H](CS)NC1=O [compound 207] (HELM PEPTIDE1{K.W.F.L.I.C.A.W.[O=C(O)[C@H](CC(=O)[*:2])N[*:1]].G}$PEPTIDE1,PEPTIDE1,1:R3-10:R2$$$V2.0)
> 5.12

###

Field: Kd. Provide a value for each of the compounds that follow.
- STUDY SYSTEM: β-catenin (Homo sapiens)
- ASSAY PROTOCOL: KD50 measurement using competitive fluorescence polarization (FP) with labelled TCF4
- Assay type: binding
- EXPERIMENTAL CONDITIONS: fluorescence polarization, β-catenin; read-out: β-Cat FP KD
Where a SMILES comes first, the peptide text is derived from it.

Below are worked cases with known answers.
Param item = CC[C@H](C)[C@H](NC(=O)[C@H](CC(C)C)NC(=O)[C@H](Cc1ccccc1)NC(=O)[C@H](Cc1c[nH]c2ccccc12)NC(=O)[C@H](CCCCN)NC(=O)[C@H](CCCNC(=N)N)NC(=O)[C@H](CO)NC(=O)[C@@H](N)CCCCN)C(=O)N[C@@H](CO)C(=O)N[C@@H](Cc1ccccc1)C(=O)N[C@@H](Cc1c[nH]c2ccccc12)C(N)=O [compound 93] (H-KSRKWFLISFW-NH2) ; retrieve measured Kd.
> 30 µM

Param item = CC[C@H](C)[C@@H]1NC(=O)[C@H](CC(C)C)NC(=O)[C@H](Cc2ccccc2)NC(=O)[C@H](Cc2c[nH]c3ccccc23)NC(=O)[C@@H](N)CCCCNC(=O)CCCNC(=O)C[C@@H](C(=O)O)NC(=O)[C@H](Cc2c[nH]c3ccccc23)NC(=O)[C@H](C)NC(=O)[C@H](CS)NC1=O [compound 247] (HELM PEPTIDE1{K.W.F.L.I.C.A.W.[O=C(O)[C@H](CC(=O)[*:2])N[*:1]].[O=C(CCCN[*:1])[*:2]]}$PEPTIDE1,PEPTIDE1,1:R3-10:R2$$$V2.0) ; retrieve measured Kd.
< 0.4 µM

Param item = CC[C@H](C)[C@H](NC(=O)[C@H](C)NC(=O)[C@H](Cc1ccccc1)NC(=O)[C@H](Cc1c[nH]c2ccccc12)NC(=O)[C@@H](N)CCSC)C(=O)N[C@@H](CO)C(=O)N[C@@H](Cc1ccccc1)C(=O)N[C@@H](Cc1c[nH]c2ccccc12)C(=O)NCC(=O)O [compound 157] (H-MWFAISFWG-OH) ; retrieve measured Kd.
> 30 µM

Param item = CC[C@H](C)[C@H](NC(=O)[C@H](CC(C)C)NC(=O)[C@H](Cc1ccccc1)NC(=O)[C@H](Cc1c[nH]c2ccccc12)NC(=O)[C@H](CCSC)NC(=O)[C@H](CCCNC(=N)N)NC(=O)[C@H](CO)NC(=O)[C@@H](N)Cc1ccccc1)C(=O)N[C@@H](CO)C(=O)N[C@@H](Cc1ccccc1)C(=O)N[C@@H](Cc1c[nH]c2ccccc12)C(N)=O [compound 81] (H-FSRMWFLISFW-NH2) ; retrieve measured Kd.
> 30 µM

Could you now look at the following compound, please?
Param item = CC[C@H](C)[C@H](NC(=O)[C@H](CC(C)C)NC(=O)[C@H](Cc1ccccc1)NC(=O)[C@H](Cc1c[nH]c2ccccc12)NC(=O)[C@H](CCSC)NC(=O)[C@H](CCCNC(=N)N)NC(=O)[C@H](CO)NC(=O)[C@@H](N)CCSC)C(=O)N[C@@H](CO)C(=O)N[C@@H](Cc1ccccc1)C(=O)N[C@@H](Cc1c[nH]c2ccccc12)C(=O)N[C@@H](CCCCN)C(N)=O [compound 6] (H-MSRMWFLISFWK-NH2) ; retrieve measured Kd.
> 30 µM

###

- STUDY SYSTEM: β-catenin (Homo sapiens, UniProt P35222)
- Sequence (P35222 1-781): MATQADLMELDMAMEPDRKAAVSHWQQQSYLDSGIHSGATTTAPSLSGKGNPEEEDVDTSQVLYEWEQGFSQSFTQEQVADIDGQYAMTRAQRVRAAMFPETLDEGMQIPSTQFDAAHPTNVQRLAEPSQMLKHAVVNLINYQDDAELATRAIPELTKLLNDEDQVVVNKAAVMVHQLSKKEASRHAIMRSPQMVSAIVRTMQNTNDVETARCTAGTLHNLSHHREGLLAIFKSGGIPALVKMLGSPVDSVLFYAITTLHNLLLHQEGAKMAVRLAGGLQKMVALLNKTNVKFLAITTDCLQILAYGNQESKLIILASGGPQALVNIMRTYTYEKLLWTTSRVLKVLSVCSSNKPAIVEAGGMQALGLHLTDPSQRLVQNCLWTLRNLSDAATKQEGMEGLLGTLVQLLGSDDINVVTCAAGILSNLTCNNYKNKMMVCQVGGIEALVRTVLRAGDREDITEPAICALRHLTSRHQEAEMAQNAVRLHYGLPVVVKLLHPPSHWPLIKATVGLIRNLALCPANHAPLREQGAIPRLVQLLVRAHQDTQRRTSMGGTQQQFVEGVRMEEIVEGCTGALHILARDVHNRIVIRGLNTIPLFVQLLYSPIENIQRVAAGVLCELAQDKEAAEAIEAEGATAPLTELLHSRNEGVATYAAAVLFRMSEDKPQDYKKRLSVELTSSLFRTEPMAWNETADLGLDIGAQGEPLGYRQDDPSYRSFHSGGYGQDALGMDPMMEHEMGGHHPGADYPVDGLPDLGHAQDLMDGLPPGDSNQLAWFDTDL
- ASSAY PROTOCOL: KD50 measurement using competitive fluorescence polarization (FP) with labelled TCF4
- Type: binding
- EXPERIMENTAL CONDITIONS: fluorescence polarization, β-catenin; read-out: β-Cat FP KD
Where a SMILES comes first, the peptide text is derived from it. The star is where a group is joined. Bn = c1ccc(C*)cc1
MEASURED PARAMETER: Kd

Below are worked cases with known answers.
Param item = CC[C@H](C)[C@@H]1NC(=O)[C@H](CC(C)C)NC(=O)[C@H](CC(C)C)NC(=O)[C@H](Cc2c[nH]c3ccccc23)NC(=O)[C@@H](N)CCCCNC(=O)C[C@@H](C(=O)O)NC(=O)[C@H](Cc2c[nH]c3ccccc23)NC(=O)[C@H](C)NC(=O)[C@H](CO)NC1=O [compound 206] (HELM PEPTIDE1{K.W.L.L.I.S.A.W.D}$PEPTIDE1,PEPTIDE1,1:R3-9:R3$$$V2.0) ; retrieve measured Kd.
> 30 µM

Param item = CC[C@H](C)[C@H](NC(=O)[C@H](CC(C)C)NC(=O)[C@H](Cc1ccccc1)NC(=O)[C@H](Cc1c[nH]c2ccccc12)NC(=O)[C@@H](N)CCSC)C(=O)N[C@@H](CO)C(=O)N[C@@H](C)C(=O)N[C@@H](Cc1c[nH]c2ccccc12)C(=O)NCC(=O)O [compound 160] (H-MWFLISAWG-OH) ; retrieve measured Kd.
> 30 µM

Could you now look at the following compound, please?
Param item = CC[C@H](C)[C@H](NC(=O)[C@H](CC(C)C)NC(=O)[C@@H](NC(=O)[C@H](Cc1c[nH]c2ccccc12)NC(=O)[C@@H](N)CCSC)[C@@H](C)CC)C(=O)N[C@@H](COCc1ccccc1)C(=O)N[C@@H](Cc1ccccc1)C(=O)N[C@@H](Cc1c[nH]c2ccccc12)C(=O)NCC(=O)O [compound 146] (H-MWILIS(Bn)FWG-OH) ; retrieve measured Kd.
> 30 µM
